# protocol-notes: Inhibition of HIV1 Rev expressed in african green monkey 5BD.1 cells assessed as inhibition of p24 antigen treated for 16 hrs after washout with medium again readded for 24 hrs by ELISA
result-type: pEC50
Recall that pEC50 is obtained by taking minus log10 of the concentration measured in molar.

Below, 6 compounds whose answers are already recorded.
smiles-record: CCc1c(C)nc2sc(C(N)=O)c(N)c2c1C
result-type: pEC50
recorded-number: 6.05
--
smiles-record: CCc1c(C(=O)Nc2ccccc2)c(C)nc2sc(C(N)=O)c(N)c12
result-type: pEC50
recorded-number: 5.52
--
smiles-record: CC(=O)Nc1cccc2n[se]nc12
result-type: pEC50
recorded-number: 5.00
--
smiles-record: Cc1ccc(NC(=O)c2sc(Cl)nc2C(F)(F)F)cc1
result-type: pEC50
recorded-number: 5.72
--
smiles-record: CCOC(=O)c1c(N)ncn1-c1ccccc1
result-type: pEC50
recorded-number: 4.52
--
smiles-record: Fc1ccc(Nc2ncnc3ccccc23)cc1Cl
result-type: pEC50
recorded-number: 5.52

// query Quickly give me recorded pEC50 for COC(=O)c1c(N)ncn1-c1ccc(C)cc1
// result 4.66

// query Quickly give me recorded pEC50 for COc1cccc(NC(=O)c2cc(Cl)nnc2Cl)c1
// result 5.31

// query Quickly give me recorded pEC50 for COc1ccc2cc3c(N)n[nH]c3nc2c1
// result 6.05

// query Quickly give me recorded pEC50 for COc1ccc2nc(C(F)(F)F)c(C#N)c(N)c2c1
// result 5.60

// query Quickly give me recorded pEC50 for CS(=O)(=O)c1ncc(-c2ccc(Br)cc2)cn1
// result 6.70
